FYI, the data here is from ChEMBL document CHEMBL1158625.

# ASSAY DETAILS: Volume of distribution at steady state in mouse at 1 mg/kg, iv
# Type: ADME, organism-based
# Parameters: dose 1 mg/kg, route intravenous
# PROTOCOL CONDITIONS: in vivo, read-out: Vdss
MEASURE: Vd (L/kg)
One number for each entry, in L/kg.

Query block: Requested read-out: Vd. Entry: `C[C@@H]1CN(C(=O)c2ccccc2)CCN1c1nnc(-c2ccc(C(F)(F)F)cc2)c2ccccc12`
Result block: 1.4

----------
# TESTED ON: CYP3A4 (Homo sapiens, UniProt P08684)
# Sequence (P08684 whole entry): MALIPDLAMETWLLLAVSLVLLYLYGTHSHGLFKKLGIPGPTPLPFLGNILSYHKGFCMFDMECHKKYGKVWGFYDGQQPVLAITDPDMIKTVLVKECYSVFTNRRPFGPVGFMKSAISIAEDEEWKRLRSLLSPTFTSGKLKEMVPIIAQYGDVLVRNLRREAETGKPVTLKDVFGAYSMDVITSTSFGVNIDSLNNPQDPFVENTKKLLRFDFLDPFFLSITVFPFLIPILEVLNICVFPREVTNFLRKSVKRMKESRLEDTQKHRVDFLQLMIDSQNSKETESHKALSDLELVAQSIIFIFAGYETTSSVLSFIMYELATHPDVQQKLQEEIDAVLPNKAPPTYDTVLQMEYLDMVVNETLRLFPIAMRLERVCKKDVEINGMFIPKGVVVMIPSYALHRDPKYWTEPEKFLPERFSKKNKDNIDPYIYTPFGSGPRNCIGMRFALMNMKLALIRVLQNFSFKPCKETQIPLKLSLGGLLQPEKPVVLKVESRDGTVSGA
# ASSAY DETAILS: Inhibition of human CYP3A4 at 3 uM by HPLC-MS
# Format: ADME
Record form. Attribute: inhibition at 3 µM. Fill in for each entry.

COMPOUND STRUCTURE STRING: C[C@@H]1CN(C(=O)c2ccccc2)CCN1c1nnc(-c2ccc(N(C)C)cc2)c2ccccc12
inhibition at 3 µM: 90%
//
COMPOUND STRUCTURE STRING: O=C(c1ccccc1)N1CCN(c2nnc(-c3ccccc3)c3ccccc23)CC1
inhibition at 3 µM: < 10%
//
COMPOUND STRUCTURE STRING: C[C@@H]1CN(c2nnc(-c3ccccc3)c3ccccc23)CCN1C(=O)c1ccccc1
inhibition at 3 µM: < 10%
//
COMPOUND STRUCTURE STRING: C[C@@H]1CN(C(=O)c2ccccc2)CCN1c1nnc(-c2ccc(C3CC3)cc2)c2ccccc12
inhibition at 3 µM: 31%
//
COMPOUND STRUCTURE STRING: O=C(c1ccccc1)N1CCN(c2nnc(-c3ccccc3Cl)c3ccccc23)CC1
inhibition at 3 µM: < 10%
//
COMPOUND STRUCTURE STRING: C[C@@H]1CN(C(=O)c2ccccc2)CCN1c1nnc(-c2ccccc2)c2ccccc12
inhibition at 3 µM: < 10%
//
COMPOUND STRUCTURE STRING: O=C(c1ccco1)N1CCN(c2nnc(-c3ccccc3)c3ccccc23)CC1
inhibition at 3 µM: < 10%
//
COMPOUND STRUCTURE STRING: O=C(c1ccccc1)N1CCN(c2nnc(-c3ccc(F)cc3)c3ccccc23)CC1
inhibition at 3 µM: < 10%

Now turn to the next compound.
Query block: Which value of inhibition at 3 µM has been reported for `C[C@H]1CN(c2nnc(-c3ccc(Cl)cc3)c3ccccc23)CCN1C(=O)c1ccccc1` in the records?
Result block: 40%

----------
# ASSAY DETAILS: Oral bioavailability in mouse at 2 mg/kg
# Format: ADME, organism-based
# PROTOCOL CONDITIONS: in vivo
MEASURE: bioavailability (%)
Numbers only, in %.

Query block: Which bioavailability is reported for this molecule? `C[C@@H]1CN(C(=O)c2ccccc2)CCN1c1nnc(-c2ccc(C(F)(F)F)cc2)c2ccccc12`
Result block: 65

----------
# ASSAY DETAILS: Half life in dog at 0.5 mg/kg, iv
# Format: ADME, organism-based, Canis lupus familiaris
# Parameters: dose 0.5 mg/kg, route intravenous
# PROTOCOL CONDITIONS: in vivo
MEASURE: half-life (h)
One number for each entry, in h.

Query block: I would be grateful if you could share the reported half-life for `C[C@@H]1CN(C(=O)c2ccccc2)CCN1c1nnc(-c2ccc(C(F)(F)F)cc2)c2ccccc12` .
Result block: 10
